test.target: UniProtKB P69905
experimental.protocol: Hb modification (drug-adduct formation) in SS blood suspensions by cation-exchange HPLC
Format: binding
Parameters: Blood suspensions from subjects with homozygous SCD; from tissue; host or cells: blood suspensions (20% hematocrit) from donors with homozygous SCD; lysates of the treated red cells
run.conditions: 2 mM, 4 biological replicates
Sequence (P69905 2-142): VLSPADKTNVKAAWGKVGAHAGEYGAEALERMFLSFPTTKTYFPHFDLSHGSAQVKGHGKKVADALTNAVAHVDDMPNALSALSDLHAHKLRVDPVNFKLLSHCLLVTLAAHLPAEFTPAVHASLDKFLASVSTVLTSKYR
Sequence (P68871 with tags, fused parts or gaps E7V partner): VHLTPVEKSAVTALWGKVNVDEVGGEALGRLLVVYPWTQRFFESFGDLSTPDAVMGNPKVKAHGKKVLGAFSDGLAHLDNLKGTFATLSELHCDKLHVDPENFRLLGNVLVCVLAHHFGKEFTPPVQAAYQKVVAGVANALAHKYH
metric.name: Hb Modification (%)

molecule	Hb Modification (%)
COC(=O)c1ccc(COc2cccc(O)c2C=O)cn1	85.3
O=Cc1c(O)cccc1OCc1ncccn1	98.1
O=Cc1c(O)cccc1OCc1cccnc1F	73.8
O=Cc1c(O)cccc1OCc1cccnc1	95.8
O=Cc1c(O)cccc1OCc1ncccc1Cl	100.0
COc1ccc(OCc2cccc(CO)n2)c(C=O)c1 [TD-7, reference compound]	72.5
O=Cc1c(O)cccc1OCc1cncc(F)c1	92.9
O=Cc1c(F)cc(F)cc1OCc1ncccc1F	79.1
O=Cc1c(O)cccc1OCc1ccncc1	74.4
O=Cc1c(F)cc(F)cc1OCc1ccccn1	69.1
O=Cc1c(O)cccc1OCc1cncnc1	100.0
O=Cc1c(O)cccc1OCc1ncccc1F	98.2
O=Cc1c(O)cccc1OCc1cccc(CO)n1 [VZHE-039, reference compound]	90.7
CC(C)n1nccc1-c1ncccc1COc1cccc(O)c1C=O [Voxelotor, reference compound]	92.3
COc1ccc(OCc2ccccn2)c(C=O)c1 [INN-310, reference compound]	65.7
O=Cc1c(OCc2cccnc2)ccc(F)c1O	99.8
O=Cc1c(O)cccc1OCc1cccnc1Cl	73.91
O=Cc1c(O)cccc1OCc1ccccn1	95.5

---

test.target: UniProtKB P69905
experimental.protocol: Drug partitioning studies, fixed and unfixed Hb adducts in non-sickling AA blood
Type: cell-based
Design: Hemoglobin modification, studies using non-sickling AA blood; from tissue; host or cells: non-sickling (AA) human blood, red blood cells
run.conditions: 2 mM, fixed relative to unfixed adducts
Sequence (P69905 2-142 limits assumed): as the sequence (P69905 2-142) above
Sequence (P68871 2-147 partner limits assumed): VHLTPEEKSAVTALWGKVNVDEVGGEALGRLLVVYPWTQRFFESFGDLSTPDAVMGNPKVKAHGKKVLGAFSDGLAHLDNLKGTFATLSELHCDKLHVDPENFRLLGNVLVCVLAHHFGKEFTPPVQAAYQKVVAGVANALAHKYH
metric.name: Partitioning Ratio (%)

compound	metric.name	unit.annotation	reported.result
O=Cc1c(O)cccc1OCc1ncccn1 [Comp 11]	Partitioning Ratio (%)	%	100.7
O=Cc1c(O)cccc1OCc1ncccc1Cl [Comp 8]	Partitioning Ratio (%)	%	101.3
O=Cc1c(O)cccc1OCc1ncccc1F [Comp 5]	Partitioning Ratio (%)	%	97.2
O=Cc1c(O)cccc1OCc1cncc(F)c1 [Comp 4]	Partitioning Ratio (%)	%	96.9
COc1ccc(OCc2ccccn2)c(C=O)c1 [INN-310, reference compound]	Partitioning Ratio (%)	%	103.0
O=Cc1c(O)cccc1OCc1cccc(CO)n1 [VZHE-039, reference compound]	Partitioning Ratio (%)	%	98.5
O=Cc1c(O)cccc1OCc1cccnc1Cl [Comp 7]	Partitioning Ratio (%)	%	99.0
O=Cc1c(O)cccc1OCc1cccnc1 [Comp 1]	Partitioning Ratio (%)	%	98.6
O=Cc1c(O)cccc1OCc1ccncc1 [Comp 3]	Partitioning Ratio (%)	%	100.1
O=Cc1c(F)cc(F)cc1OCc1ccccn1 [Comp 9]	Partitioning Ratio (%)	%	105.2
COc1ccc(OCc2cccc(CO)n2)c(C=O)c1 [TD-7, reference compound]	Partitioning Ratio (%)	%	103.7
COC(=O)c1ccc(COc2cccc(O)c2C=O)cn1 [PP14]	Partitioning Ratio (%)	%	102.2
O=Cc1c(O)cccc1OCc1cncnc1 [Comp 10]	Partitioning Ratio (%)	%	98.5
O=Cc1c(OCc2cccnc2)ccc(F)c1O [Comp 12]	Partitioning Ratio (%)	%	99.4
O=Cc1c(O)cccc1OCc1ccccn1 [Comp 2]	Partitioning Ratio (%)	%	98.9
O=Cc1c(F)cc(F)cc1OCc1ncccc1F [Comp 13]	Partitioning Ratio (%)	%	103.0
CC(C)n1nccc1-c1ncccc1COc1cccc(O)c1C=O [Voxelotor, reference compound]	Partitioning Ratio (%)	%	96.1
O=Cc1c(O)cccc1OCc1cccnc1F [Comp 6]	Partitioning Ratio (%)	%	100.0
